All values here come from paper PMC11659602.

system-tested: PADI4 (Homo sapiens)
Construct: His6; made in house
protocol-notes: COLDER inhibition assay, BAEE substrate, with or without 1 h preincubation
Assay type: biochemical
experimental-setup: peptide 0.01 µM, T=0, values starred; read-out: PADI4 activity normalised to 0.1% DMSO
Where a SMILES comes first, the peptide text is derived from it. Bridges are numbered along the chain shown (N, C = ends). [ ]: non-standard residue; d: D form. Orn(fluoroacetimidoyl) = N=C(CF)NCCC[C@H](N)C(=O)O
measured-attribute: remaining activity at 0.01 µM (%)
Numbers only, in %.

Provide the documented remaining activity at 0.01 µM with PADI4 (Homo sapiens) as the system for N=C(N)NCCC[C@@H]1NC(=O)[C@H](CCCNC(=N)CF)NC(=O)[C@H](CC(=O)O)NC(=O)[C@H](Cc2ccc(O)cc2)NC(=O)[C@H](CCCCN)NC(=O)[C@H](CO)NC(=O)[C@@H](Cc2ccc(O)cc2)NC(=O)CSC[C@@H](C(=O)NCC(N)=O)NC(=O)[C@H](CC(=O)O)NC(=O)[C@H](CCCNC(=N)N)NC(=O)[C@@H]2CCCN2C(=O)[C@H](CO)NC1=O [cP4_4, ySKYD(2)RSPRDCG] ({CH2CO}-[dY]SKYD[Orn(fluoroacetimidoyl)]RSPRDCG-NH2; thioether N-12)
92.4

====

system-tested: PADI4 (Homo sapiens, UniProt Q9UM07)
Construct: His6; made in house
Sequence (Q9UM07 whole entry): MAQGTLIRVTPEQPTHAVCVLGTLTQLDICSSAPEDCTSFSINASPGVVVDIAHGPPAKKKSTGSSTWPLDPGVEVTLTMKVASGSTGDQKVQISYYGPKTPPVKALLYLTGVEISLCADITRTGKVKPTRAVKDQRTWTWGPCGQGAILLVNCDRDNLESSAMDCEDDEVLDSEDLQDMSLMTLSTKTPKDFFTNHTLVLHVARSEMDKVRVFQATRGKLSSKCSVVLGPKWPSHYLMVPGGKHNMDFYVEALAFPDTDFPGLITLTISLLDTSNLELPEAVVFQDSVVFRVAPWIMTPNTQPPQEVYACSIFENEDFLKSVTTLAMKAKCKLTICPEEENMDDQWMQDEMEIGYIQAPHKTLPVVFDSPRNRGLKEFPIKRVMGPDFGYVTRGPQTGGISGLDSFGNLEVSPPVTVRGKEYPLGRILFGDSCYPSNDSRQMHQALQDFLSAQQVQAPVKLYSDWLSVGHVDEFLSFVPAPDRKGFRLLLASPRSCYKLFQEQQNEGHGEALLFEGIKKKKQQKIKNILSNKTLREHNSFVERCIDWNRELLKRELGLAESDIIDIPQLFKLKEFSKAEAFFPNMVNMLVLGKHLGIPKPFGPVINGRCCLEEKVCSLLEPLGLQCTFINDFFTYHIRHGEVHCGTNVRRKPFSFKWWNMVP
protocol-notes: COLDER inhibition assay, BAEE substrate, with or without 1 h preincubation
Format: biochemical
experimental-setup: peptide 0.003 µM, T=0, values starred; read-out: PADI4 activity normalised to 0.1% DMSO
Where a SMILES comes first, the peptide text is derived from it. Bridges are numbered along the chain shown (N, C = ends). [ ]: non-standard residue; d: D form. Orn(fluoroacetimidoyl) = N=C(CF)NCCC[C@H](N)C(=O)O
measured-attribute: remaining activity at 0.003 µM (%)
Numbers only, in %.

Answered cases to consult:
[
  {
    "compound": "CC[C@H](C)[C@@H]1NC(=O)[C@@H](Cc2ccc(O)cc2)NC(=O)CSC[C@@H](C(=O)NCC(N)=O)NC(=O)[C@H](CO)NC(=O)[C@H](CCCNC(=N)CF)NC(=O)[C@H](CC(=O)O)NC(=O)[C@H](CCCNC(=N)CF)NC(=O)[C@H](CC(C)C)NC(=O)CNC(=O)[C@H](Cc2c[nH]c3ccccc23)NC1=O [cP4_2, yIWGL(2)D(2)SCG] ({CH2CO}-[dY]IWGL[Orn(fluoroacetimidoyl)]D[Orn(fluoroacetimidoyl)]SCG-NH2; thioether N-10)",
    "unit-symbol": "%",
    "result-number": 107
  },
  {
    "compound": "N=C(N)NCCC[C@@H]1NC(=O)[C@H](Cc2ccc(O)cc2)NC(=O)[C@H](Cc2c[nH]cn2)NC(=O)[C@H](CCCNC(=N)CF)NC(=O)[C@H](CC(=O)O)NC(=O)[C@H](CCCNC(=N)N)NC(=O)[C@@H](Cc2ccc(O)cc2)NC(=O)CSC[C@@H](C(=O)NCC(N)=O)NC(=O)[C@H](Cc2ccc(O)cc2)NC(=O)[C@H](CCCCN)NC(=O)[C@@H]2CCCN2C(=O)[C@H](Cc2c[nH]cn2)NC1=O [PADI4_3_H4(2), yRD(2)HYRHPKYCG] ({CH2CO}-[dY]RD[Orn(fluoroacetimidoyl)]HYRHPKYCG-NH2; thioether N-12)",
    "unit-symbol": "%",
    "result-number": 103
  },
  {
    "compound": "CC(C)C[C@@H]1NC(=O)[C@H](CCCCN)NC(=O)[C@H](CO)NC(=O)[C@H](CO)NC(=O)[C@H](Cc2ccc(O)cc2)NC(=O)[C@H](Cc2c[nH]cn2)NC(=O)[C@H](CCCNC(=N)CF)NC(=O)[C@H](CC(=O)O)NC(=O)[C@H](CC(C)C)NC(=O)[C@@H](Cc2ccc(O)cc2)NC(=O)CSC[C@@H](C(=O)NCC(N)=O)NC(=O)[C@H](Cc2ccc(O)cc2)NC1=O [cP4_15, yLD(2)HYSSKLYCG] ({CH2CO}-[dY]LD[Orn(fluoroacetimidoyl)]HYSSKLYCG-NH2; thioether N-12)",
    "unit-symbol": "%",
    "result-number": 95.7
  }
]

Then this compound:
Provide the documented remaining activity at 0.003 µM with PADI4 (Homo sapiens, UniProt Q9UM07) as the system for N=C(N)NCCC[C@@H]1NC(=O)[C@H](CCCNC(=N)CF)NC(=O)[C@H](CC(=O)O)NC(=O)[C@H](Cc2ccc(O)cc2)NC(=O)[C@H](CCCCN)NC(=O)[C@H](CO)NC(=O)[C@@H](Cc2ccc(O)cc2)NC(=O)CSC[C@@H](C(=O)NCC(N)=O)NC(=O)[C@H](CC(=O)O)NC(=O)[C@H](CCCNC(=N)N)NC(=O)[C@@H]2CCCN2C(=O)[C@H](CO)NC1=O [cP4_4, ySKYD(2)RSPRDCG] ({CH2CO}-[dY]SKYD[Orn(fluoroacetimidoyl)]RSPRDCG-NH2; thioether N-12)
97.2
